So I've got a bunch of molecules here, and I need their Thermal Stability (°C) values.
# System: KRAS WT
# Construct: His6-MBP (N, cleaved yes); made in house; host or cells: E. coli
# protocolDescription: Protein-Probe thermal stability assay
# Assay type: binding, human
# particulars: Table S1; KRAS WT 50 nM; additive as headed: EDTA 0.5 mM, MgCl2 1 mM, GDP 10 mM, GTP 10 µM, GTPγS 10 µM, GMP-PNP 300 µM, GMP-PCP 300 µM, GMP 1 mM
Give bare numbers, in °C.

Previously resolved entries follow.
Nc1nc2c(ncn2C2OC(COP(=O)(O)OP(=O)(O)CP(=O)(O)O)C(O)C2O)c(=O)[nH]1 (centres unmarked) : 64.4
Nc1nc2c(ncn2[C@@H]2O[C@H](COP(=O)(O)OP(=O)(O)OP(=O)(O)O)[C@@H](O)[C@H]2O)c(=O)[nH]1 [GTP, guanosine-5’-triphosphate] : 68.2
Nc1nc2c(ncn2[C@@H]2O[C@H](COP(=O)(O)O)[C@@H](O)[C@H]2O)c(=O)[nH]1 [GMP, guanosine-5’-monophosphate] : 61.3
Nc1nc2c(ncn2[C@@H]2O[C@H](COP(=O)(O)OP(=O)(O)OP(O)(O)=S)[C@@H](O)[C@H]2O)c(=O)[nH]1 [GTPγS, guanosine-5’-(γ-thio)-triphosphate] : 67.8
[Cl-].[Cl-].[Mg+2] : 61.3
Nc1nc2c(ncn2[C@@H]2O[C@H](COP(=O)(O)OP(=O)(O)NP(=O)(O)O)[C@@H](O)[C@H]2O)c(=O)[nH]1 [GMP-PNP, guanosine-5’-[(β,γ)-imido]triphosphate] : 67.1
O=C(O)CN(CCN(CC(=O)O)CC(=O)O)CC(=O)O : 49.0

Now examine the next entry.
Documented Thermal Stability (°C) of Nc1nc2c(ncn2[C@@H]2O[C@H](COP(=O)(O)OP(=O)(O)O)[C@@H](O)[C@H]2O)c(=O)[nH]1 [GDP, guanosine-5’-diphosphate] : 68.0

Where do these numbers come from? They come from paper PMC9266822.
